# Test system: Staphylococcus aureus
# Test details: Antibacterial activity against Staphylococcus aureus assessed as growth inhibition after 24 hr by NCCLS broth micro-dilution method
# Type: functional
Each record here notes measured MIC.
Reply with just the number (in µg/mL).

// known answers, use as guide
| Compound | MIC / µg/mL |
| --- | --- |
| NS(=O)(=O)c1ccc(NC(=S)NC(=O)c2ccc(Cl)cc2)cc1 | 0.156 |
| NS(=O)(=O)c1ccc(NC(=S)NC(=O)c2cccc([N+](=O)[O-])c2)cc1 | 0.313 |
| NS(=O)(=O)c1ccc(NC(=S)NC(=O)Cc2ccccc2)cc1 | 0.313 |
| Cc1ccc(C(=O)NC(=S)Nc2ccc(S(N)(=O)=O)cc2)cc1 | 0.313 |
| COc1cccc(C(=O)NC(=S)Nc2ccc(S(N)(=O)=O)cc2)c1 | 0.313 |

**Query** MIC for NS(=O)(=O)c1ccc(NC(=S)NC(=O)c2cccc(F)c2)cc1 ?
**Result** 0.313

**Query** Given the compound NS(=O)(=O)c1ccc(NC(=S)NC(=O)c2ccc([N+](=O)[O-])cc2)cc1 , what is its reported MIC?
**Result** 0.156

**Query** Entry under review: NS(=O)(=O)c1ccc(NC(=S)NC(=O)c2cc([N+](=O)[O-])ccc2Cl)cc1 . Reported MIC?
**Result** 0.156

**Query** Look up MIC: COc1ccc(C(=O)NC(=S)Nc2ccc(S(N)(=O)=O)cc2)c(OC)c1OC
**Result** 0.156

**Query** Reported MIC for CCC(CC(=O)NC(=S)Nc1ccc(S(N)(=O)=O)cc1)c1ccccc1 (stereo not given) : what is it?
**Result** 0.625

**Query** # MIC lookup, item NS(=O)(=O)c1ccc(NC(=S)NC(=O)c2ccco2)cc1
**Result** 0.625

**Query** Fill in: MIC of COc1cc(OC)cc(C(=O)NC(=S)Nc2ccc(S(N)(=O)=O)cc2)c1 is ___
**Result** 0.313

**Query** May I ask what MIC has been recorded for NS(=O)(=O)c1ccc(NC(=S)NC(=O)c2ccc(Cl)cc2[N+](=O)[O-])cc1 ?
**Result** 0.156

**Query** Any idea what its MIC is? The compound is O=C(O)c1cn(C2CC2)c2cc(N3CCNCC3)c(F)cc2c1=O
**Result** 0.156

**Query** Fill in the blank: the reported MIC of NS(=O)(=O)c1ccc(NC(=S)NC(=O)c2ccc(Cl)cc2Cl)cc1 is ____.
**Result** 0.313

---

# Test system: Escherichia coli
# Test details: Antibacterial activity against Escherichia coli assessed as growth inhibition after 24 hr by NCCLS broth micro-dilution method
# Assay type: functional
Quantity name: MIC (µg/mL)
Dear colleague, please return just the value in µg/mL, with no unit written.

Worked cases, MIC given:
| Compound | Units | MIC |
| --- | --- | --- |
| NS(=O)(=O)c1ccc(NC(=S)NC(=O)c2cccc(Cl)c2)cc1 | µg/mL | 0.156 |
| COc1cccc(C(=O)NC(=S)Nc2ccc(S(N)(=O)=O)cc2)c1OC | µg/mL | 0.313 |
| Cc1ccccc1C(=O)NC(=S)Nc1ccc(S(N)(=O)=O)cc1 | µg/mL | 0.313 |
| NS(=O)(=O)c1ccc(NC(=S)NC(=O)c2cccc(F)c2)cc1 | µg/mL | 0.313 |
| Cc1cccc(C(=O)NC(=S)Nc2ccc(S(N)(=O)=O)cc2)c1 | µg/mL | 1.25 |

**Query** Fill in the blank: the reported MIC of O=C(O)c1cn(C2CC2)c2cc(N3CCNCC3)c(F)cc2c1=O [CIPROFLOXACIN] is ____.
**Result** 0.156

This collection of values is drawn from ChEMBL document CHEMBL3045259.
